Field: IC50. Provide a value for each of the molecules that follow.
- experimental target: pSTAT6 (Homo sapiens, UniProt P42226)
- Construct: pY641-STAT6 MSD read-out
- Sequence (P42226 1-847): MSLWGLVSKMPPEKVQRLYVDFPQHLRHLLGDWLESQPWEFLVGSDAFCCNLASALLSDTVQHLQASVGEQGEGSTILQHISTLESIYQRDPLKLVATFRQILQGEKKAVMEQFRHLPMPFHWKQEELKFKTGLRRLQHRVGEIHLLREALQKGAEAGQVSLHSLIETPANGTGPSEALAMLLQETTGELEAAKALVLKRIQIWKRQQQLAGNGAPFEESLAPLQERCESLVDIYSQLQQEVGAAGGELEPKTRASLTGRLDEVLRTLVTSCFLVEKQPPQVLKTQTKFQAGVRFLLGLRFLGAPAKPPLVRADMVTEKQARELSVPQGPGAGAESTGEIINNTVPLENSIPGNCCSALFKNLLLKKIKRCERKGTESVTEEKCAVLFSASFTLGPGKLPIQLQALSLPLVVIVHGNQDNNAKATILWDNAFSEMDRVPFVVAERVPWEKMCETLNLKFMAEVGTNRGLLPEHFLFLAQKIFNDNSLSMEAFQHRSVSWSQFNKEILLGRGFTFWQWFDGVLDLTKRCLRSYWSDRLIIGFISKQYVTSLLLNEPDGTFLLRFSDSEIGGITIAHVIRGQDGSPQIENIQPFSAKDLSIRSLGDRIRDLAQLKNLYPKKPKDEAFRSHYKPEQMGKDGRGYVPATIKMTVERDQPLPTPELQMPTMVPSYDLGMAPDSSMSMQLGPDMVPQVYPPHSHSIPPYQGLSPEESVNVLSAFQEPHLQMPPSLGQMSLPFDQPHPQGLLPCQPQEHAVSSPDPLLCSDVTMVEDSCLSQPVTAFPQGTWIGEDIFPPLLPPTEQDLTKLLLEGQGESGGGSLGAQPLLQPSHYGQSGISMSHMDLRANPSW
- method description: MSD-pSTAT-PBMC Assay, pSTAT6 (IL-4 stimulated PBMC)
- Type: cell-based
- condition details: read-out: pSTAT6 IC50, compound 3 hrs, then 1 ng/mL IL-4 for 10 min, pY641-STAT6

Notebook entry, pSTAT6 (Homo sapiens, UniProt P42226) assay: IC50 of CC(=O)N1CC[C@H]2CC[C@@H](C(=O)Nc3ccc(-c4ccc(NC(=O)CCCCCC#Cc5cccc6c5CN(C5CCC(=O)NC5=O)C6=O)cc4)cc3)N2C(=O)[C@@H](NC(=O)c2cc3cc(C(F)(F)P(=O)(OCOC(=O)C(C)(C)C)OCOC(=O)C(C)(C)C)ccc3[nH]2)C1 (some centres unmarked) = ?
> 3 µM

Notebook entry, pSTAT6 (Homo sapiens, UniProt P42226) assay: IC50 of Cc1ccc2[nH]nc(C(=O)N3CC[C@H]4CC[C@@H](C(=O)NCCCCCCCCC(=O)N[C@H](C(=O)N5C[C@H](O)C[C@H]5C(=O)N[C@@H](C)c5ccc(-c6scnc6C)cc5)C(C)(C)C)N4C(=O)[C@@H](NC(=O)c4ccc5ccc(C(F)(F)P(=O)(O)O)cc5c4)C3)c2c1 = ?
> 3 µM
